Taken from patent US5387602A.

SUBJECT OF TEST: RBL-1 Cell Cyclooxygenase (Rattus norvegicus, UniProt Q63921)
Construct: the supernatant was saved as the source of enzymes; endogenous in cells; host or cells: RBL-1 (rat basophilic leukemia cells), 10,000×g supernatant of homogenate
Sequence (Q63921 27-602): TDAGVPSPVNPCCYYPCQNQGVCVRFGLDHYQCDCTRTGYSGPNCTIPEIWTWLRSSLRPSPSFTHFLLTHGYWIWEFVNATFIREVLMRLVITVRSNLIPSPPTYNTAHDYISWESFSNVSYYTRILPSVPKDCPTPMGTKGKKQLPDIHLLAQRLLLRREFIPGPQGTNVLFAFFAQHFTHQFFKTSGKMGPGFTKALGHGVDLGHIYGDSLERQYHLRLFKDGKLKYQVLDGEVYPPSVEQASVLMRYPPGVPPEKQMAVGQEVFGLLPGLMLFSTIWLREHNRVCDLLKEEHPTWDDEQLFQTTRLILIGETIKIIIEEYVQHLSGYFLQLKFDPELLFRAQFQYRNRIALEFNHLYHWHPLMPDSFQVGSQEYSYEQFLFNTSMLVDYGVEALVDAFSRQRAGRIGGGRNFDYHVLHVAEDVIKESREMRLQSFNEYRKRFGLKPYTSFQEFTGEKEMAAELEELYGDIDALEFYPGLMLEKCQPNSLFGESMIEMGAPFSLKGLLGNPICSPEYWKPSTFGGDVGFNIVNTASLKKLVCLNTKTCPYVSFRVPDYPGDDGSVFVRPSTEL
MEASUREMENT PROTOCOL: Procedure II: cyclooxygenase inhibition in disrupted RBL-1 cells (supernatant as enzyme source)
Type: biochemical
Recorded measurements of % INHIBITION CO (Procedure II), one per entry

SMILES REPRESENTATION: COc1ccc(-n2nc(CCOC(=O)N(C)O)c(Cl)c2-c2ccc(Cl)cc2)cc1
% INHIBITION CO (Procedure II) (%): 41
--
SMILES REPRESENTATION: COc1ccc(-n2nc(CCOC(=O)N(O)C(C)C)c(Br)c2-c2ccc(Cl)cc2)cc1
% INHIBITION CO (Procedure II) (%): 4
--
SMILES REPRESENTATION: COc1ccc(-n2nc(CCOC(=O)N(O)C(C)C)c(Cl)c2-c2ccc(C)cc2)cc1
% INHIBITION CO (Procedure II) (%): 42
--
SMILES REPRESENTATION: COc1ccc(-n2nc(CCCOC(=O)N(C)O)c(Cl)c2-c2ccc(Cl)cc2)cc1
% INHIBITION CO (Procedure II) (%): 100
--
SMILES REPRESENTATION: COc1ccc(-n2nc(COC(=O)N(C)O)cc2-c2ccc(Cl)cc2)cc1
% INHIBITION CO (Procedure II) (%): 52
--
SMILES REPRESENTATION: COc1ccc(-n2nc(CCCOC(=O)N(O)C(C)C)c(Br)c2-c2ccc(Cl)cc2)cc1
% INHIBITION CO (Procedure II) (%): 0
--
SMILES REPRESENTATION: COc1ccc(-n2nc(COC(=O)N(O)C(C)C)c(Br)c2-c2ccc(C)cc2)cc1
% INHIBITION CO (Procedure II) (%): 82

* * *

SUBJECT OF TEST: Sheep Seminal Vesicle Cyclooxygenase (Ovis aries)
Construct: purchased Biomol (Plymouth Meeting, Pa.); host or cells: sheep seminal vesicle
Sequence (P05979 25-600): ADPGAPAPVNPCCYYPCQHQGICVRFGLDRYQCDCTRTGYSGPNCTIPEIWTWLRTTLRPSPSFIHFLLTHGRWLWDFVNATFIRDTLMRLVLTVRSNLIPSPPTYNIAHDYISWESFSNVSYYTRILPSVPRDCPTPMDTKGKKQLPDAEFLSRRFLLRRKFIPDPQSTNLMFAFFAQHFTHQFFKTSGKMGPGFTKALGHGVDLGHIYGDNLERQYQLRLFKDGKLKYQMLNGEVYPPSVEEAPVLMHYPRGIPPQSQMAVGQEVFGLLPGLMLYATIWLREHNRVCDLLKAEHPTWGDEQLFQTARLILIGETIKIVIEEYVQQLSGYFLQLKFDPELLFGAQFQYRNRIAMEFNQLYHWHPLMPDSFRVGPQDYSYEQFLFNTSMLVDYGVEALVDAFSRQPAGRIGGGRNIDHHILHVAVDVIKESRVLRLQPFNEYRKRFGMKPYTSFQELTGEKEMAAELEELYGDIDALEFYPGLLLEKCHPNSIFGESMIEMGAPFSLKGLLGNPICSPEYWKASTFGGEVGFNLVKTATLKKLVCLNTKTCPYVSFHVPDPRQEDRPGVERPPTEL
MEASUREMENT PROTOCOL: Procedure I: sheep seminal vesicle (SSV) cyclooxygenase inhibition
Format: biochemical
CONDITION DESCRIPTION: dose 3 MPK unless otherwise stated (so in the source)
Procedure: Sheep Seminal Vesicle Cyclooxygenase Sheep seminal vesicle (SSV) cyclooxygenase (95% pure, prostaglandin endoperoxide synthase, EC 1.14.99.1 specific activity 24 units/mg protein) obtained as a lyophilized powder from Biomol (Plymouth Meeting, Pa.) was reconstituted at a concentration of 59 mg/mL in Hanks' Balanced Salt Solution (HBSS). […] Radioactive cyclooxygenase products (prostaglandin D2, prostaglandin E2, etc.) were measured using a Bioscan System 200 Imaging Scanner. […]
Recorded measurements of % INHIB. CO (Procedure I), one per entry
VALUE KIND: % INHIB. CO (Procedure I) (%)

SMILES REPRESENTATION: COc1ccc(-n2nc(COC(=O)N(C)O)cc2-c2ccc(Cl)cc2)cc1
VALUE KIND: % INHIB. CO (Procedure I)
UNIT SYMBOL: %
QUANTITATIVE RESULT: 100
--
SMILES REPRESENTATION: COc1ccc(-n2nc(COC(=O)N(O)C(C)C)c(Cl)c2-c2ccc(C)cc2)cc1
VALUE KIND: % INHIB. CO (Procedure I)
UNIT SYMBOL: %
QUANTITATIVE RESULT: 11
--
SMILES REPRESENTATION: COc1ccc(-n2nc(CCCOC(=O)N(C)O)c(Br)c2-c2ccc(Cl)cc2)cc1
VALUE KIND: % INHIB. CO (Procedure I)
UNIT SYMBOL: %
QUANTITATIVE RESULT: 78
--
SMILES REPRESENTATION: COc1ccc(-n2nc(CCOC(=O)N(O)C(C)C)cc2-c2ccc(Cl)cc2)cc1
VALUE KIND: % INHIB. CO (Procedure I)
UNIT SYMBOL: %
QUANTITATIVE RESULT: 100
--
SMILES REPRESENTATION: COc1ccc(-n2nc(CCCOC(=O)N(C)O)cc2-c2ccc(Cl)cc2)cc1
VALUE KIND: % INHIB. CO (Procedure I)
UNIT SYMBOL: %
QUANTITATIVE RESULT: 74
--
SMILES REPRESENTATION: COc1ccc(-n2nc(CCOC(=O)N(C)O)cc2-c2ccc(C)cc2)cc1
VALUE KIND: % INHIB. CO (Procedure I)
UNIT SYMBOL: %
QUANTITATIVE RESULT: 100
--
SMILES REPRESENTATION: COc1ccc(-n2nc(COC(=O)N(C)O)cc2-c2ccc(C)cc2)cc1
VALUE KIND: % INHIB. CO (Procedure I)
UNIT SYMBOL: %
QUANTITATIVE RESULT: 100
--
SMILES REPRESENTATION: COc1ccc(-n2nc(CCCOC(=O)N(C)O)c(Cl)c2-c2ccc(Cl)cc2)cc1
VALUE KIND: % INHIB. CO (Procedure I)
UNIT SYMBOL: %
QUANTITATIVE RESULT: 68
--
SMILES REPRESENTATION: COc1ccc(-n2nc(CCOC(=O)N(O)C(C)C)cc2-c2ccc(C)cc2)cc1
VALUE KIND: % INHIB. CO (Procedure I)
UNIT SYMBOL: %
QUANTITATIVE RESULT: 94
--
SMILES REPRESENTATION: COc1ccc(-n2nc(COC(=O)N(C)O)c(Br)c2-c2ccc(C)cc2)cc1
VALUE KIND: % INHIB. CO (Procedure I)
UNIT SYMBOL: %
QUANTITATIVE RESULT: 100
--
SMILES REPRESENTATION: COc1ccc(-n2nc(COC(=O)NO)cc2-c2ccc(C)cc2)cc1
VALUE KIND: % INHIB. CO (Procedure I)
UNIT SYMBOL: %
QUANTITATIVE RESULT: 73
--
SMILES REPRESENTATION: COc1ccc(-n2nc(CCOC(=O)N(O)C(C)C)c(Cl)c2-c2ccc(C)cc2)cc1
VALUE KIND: % INHIB. CO (Procedure I)
UNIT SYMBOL: %
QUANTITATIVE RESULT: 88
